# TARGET_DESC: T1, human PD-1 expressed on CHO cells (human, UniProt Q15116 25-288)
# T1 construct: also called hPD-1; CHO-hPD-1
# EXPERIMENTAL_DETAILS: hPD-1 binding titration (format not named; taken as cell binding)
RECORDED_ENDPOINT: Bmax

BINDER	RECORDED_ENDPOINT	REPORTED_MEASUREMENT
1353-G10 wt IgG (antibody, V domains shown, IgG; also called Sample I) VH: EVQLVQSGAEVKKPGASVKVSCKASGYRFPHYGISWVRQAPGQGLEWMGWISAYNGNTNYAQKLQGRVTMTTDTSTNTAYMELRSLRSDDTAVYYCARDVDYGTGSGYWGQGTLVTVSS VL: SYELTQPPSVSVSPGQTARITCSGDALPKQYAYWYQQKPGQAPVMVIYKDTERPSGIPERFSGSSSGTKVTLTISGVQAEDEADYYCQSADNSITYRVFGGGTKVTVL	Bmax	2980
1353-G10 H1/vk1-39 IgG (antibody, V domains shown, IgG; also called Sample L) VH: EVQLVQSGAEVKKPGASVKVSCKASGYTFDSYGISWVRQAPGQGLEWMGWISAYNGNTNYAQKLQGRVTMTTDTSTNTAYMELRSLRSDDTAVYYCARDVDYGTGSGYWGQGTLVTVSS VL: DIQLTQSPSSLSASVGDRVTITCSGDALPKQYAYWYQQKPGKAPKLLIYKDTERPSGVPSRFSGSSSGTKVTLTISSLQPEDFATYYCQSADNSITYRVFGGGTKVEIK	Bmax	4940
1353-G10 vk1-39 LC IgG (antibody, V domains shown, IgG; also called Sample K) VH: EVQLVQSGAEVKKPGASVKVSCKASGYRFPHYGISWVRQAPGQGLEWMGWISAYNGNTNYAQKLQGRVTMTTDTSTNTAYMELRSLRSDDTAVYYCARDVDYGTGSGYWGQGTLVTVSS VL: DIQLTQSPSSLSASVGDRVTITCSGDALPKQYAYWYQQKPGKAPKLLIYKDTERPSGVPSRFSGSSSGTKVTLTISSLQPEDFATYYCQSADNSITYRVFGGGTKVEIK	Bmax	3630
1353-G10 H1 HC IgG (antibody, V domains shown, IgG; also called Sample J) VH: EVQLVQSGAEVKKPGASVKVSCKASGYTFDSYGISWVRQAPGQGLEWMGWISAYNGNTNYAQKLQGRVTMTTDTSTNTAYMELRSLRSDDTAVYYCARDVDYGTGSGYWGQGTLVTVSS VL: SYELTQPPSVSVSPGQTARITCSGDALPKQYAYWYQQKPGQAPVMVIYKDTERPSGIPERFSGSSSGTKVTLTISGVQAEDEADYYCQSADNSITYRVFGGGTKVTVL	Bmax	3410
